Assay: recombinant UMI read abundance after kanamycin selection (control-corrected) (log10(CPM+1)); higher = more efficient recombination; extreme values may be limits of the assay; sequences stand for … in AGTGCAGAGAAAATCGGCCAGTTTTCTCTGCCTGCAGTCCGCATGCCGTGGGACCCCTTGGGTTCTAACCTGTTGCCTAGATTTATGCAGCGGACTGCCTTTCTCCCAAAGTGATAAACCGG…AGGTTGGTTTCACT; site = the 11-nt donor;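 also: IS621 bridge recombinase in Escherichia coli cells against a fixed T5 target plasmid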
Classification scheme (recombinant UMI read abundance (log10)): bin 1: < 0.03; bin 2: ≥ 0.03 and < 1; bin 3: ≥ 1

Query: Any idea which band ACTAAAACATGGACCGGTTTTCCCGGTAATCCGTATTTGAG (site ACTAGAACTCT) is in?
Response: bin 2

Query: Any idea which band CGCGGCTCATGGACCGGTTTTCCCGGTAATCCGTATTTGGC (site CGCGGCTCTGC) is in?
Response: bin 3

Query: Any idea which band CTTCGCTCATGGACCGGTTTTCCCGGTAATCCGTATTTGTA (site CTTCCCTCTTA) is in?
Response: bin 1

Query: Any idea which band ATCGATACATGGACCGGTTTTCCCGGTAATCCGTATTTGAC (site ATCAATACTGT) is in?
Response: bin 3

Query: Any idea which band CCTCACTCATGGACCGGTTTTCCCGGTAATCCGTATTTGCT (site CCTCACTCTAG) is in?
Response: bin 2

Query: Any idea which band TCCGATGCATGGACCGGTTTTCCCGGTAATCCGTATTTGTT (site TCCGATGCTAA) is in?
Response: bin 1

Query: Any idea which band GGTGCCACATGGACCGGTTTTCCCGGTAATCCGTATTTGGT (site GGTGCCACTAC) is in?
Response: bin 2

Query: Any idea which band ACACTTCCATGGACCGGTTTTCCCGGTAATCCGTATTTGAC (site ACACATCCTGT) is in?
Response: bin 3
